Sourced from patent US11912703B2

# System Under Test: human TLR8 (Homo sapiens (Human), UniProt Q9NR97)
# Sequence (Q9NR97 27-1041): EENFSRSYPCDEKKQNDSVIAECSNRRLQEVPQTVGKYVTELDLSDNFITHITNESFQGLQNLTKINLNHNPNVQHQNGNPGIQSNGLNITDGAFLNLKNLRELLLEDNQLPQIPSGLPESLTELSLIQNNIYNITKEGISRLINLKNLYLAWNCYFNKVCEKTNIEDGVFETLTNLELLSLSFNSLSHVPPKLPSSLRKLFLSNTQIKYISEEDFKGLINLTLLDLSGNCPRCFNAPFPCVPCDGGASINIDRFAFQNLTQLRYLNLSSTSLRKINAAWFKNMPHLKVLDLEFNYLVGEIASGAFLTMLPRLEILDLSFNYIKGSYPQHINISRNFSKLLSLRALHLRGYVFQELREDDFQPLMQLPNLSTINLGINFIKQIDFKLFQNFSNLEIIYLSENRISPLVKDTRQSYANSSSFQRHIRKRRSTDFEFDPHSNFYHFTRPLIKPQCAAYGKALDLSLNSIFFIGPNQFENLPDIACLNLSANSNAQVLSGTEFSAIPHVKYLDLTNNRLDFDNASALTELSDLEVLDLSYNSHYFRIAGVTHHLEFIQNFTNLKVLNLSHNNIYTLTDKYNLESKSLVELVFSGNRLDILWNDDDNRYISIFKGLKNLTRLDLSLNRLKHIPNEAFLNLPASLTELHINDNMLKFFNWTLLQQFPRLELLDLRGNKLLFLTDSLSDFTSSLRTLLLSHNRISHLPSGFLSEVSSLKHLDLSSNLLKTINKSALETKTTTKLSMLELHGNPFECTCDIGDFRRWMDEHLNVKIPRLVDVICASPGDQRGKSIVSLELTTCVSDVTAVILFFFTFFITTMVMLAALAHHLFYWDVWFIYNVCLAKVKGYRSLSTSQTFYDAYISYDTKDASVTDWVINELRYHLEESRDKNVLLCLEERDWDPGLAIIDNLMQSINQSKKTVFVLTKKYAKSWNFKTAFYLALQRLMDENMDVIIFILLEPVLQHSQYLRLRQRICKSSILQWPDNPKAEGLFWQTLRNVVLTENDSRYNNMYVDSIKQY
# Procedure Details: TLR8 inhibition reporter assay (HEK-Blue SEAP);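 note: SEAP driven by IFN-β minimal promoter with five NF-κB and AP-1 sites, compounds tested 0.05 nM to 50 µM, 22 h incubation, inhibition relative to agonist plus DMSO wells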
# Assay Context: read-out: TLR8 IC50; HEK-Blue cells overexpressing human TLR8, R848 15.9 μM stimulation, SEAP reporter
Measured Endpoint: IC50 (nM)

>>> observed_value("COc1cc(-c2[nH]c3cnc(N4CCNCC4)cc3c2C(C)C)cn2ncnc12")
0.56
>>> observed_value("Cc1c(-c2[nH]c3cnc(C4CCC(NC[C@@H](F)C(C)(C)O)CC4)c(F)c3c2C(C)C)cn2ncnc2c1C (stereo partly drawn) [Example 240]")
0.39
>>> observed_value("Cc1c(-c2[nH]c3cnc(N4CCN(C5COC5)CC4)c(C)c3c2C(C)C)cn2ncnc2c1C")
13
